Record form. Attribute: Population Membrane Permeable-Phenotype (%). Fill in for each entry.
# System: Fibroblast
# assay: Multiplex assay against human fibroblast
# Assay type: toxicity, cell-based
# assayContext: 12 h, 1 µM, compound concentration 1 uM, replicate 2
Numbers only; they are read as %.

Query: Entry under review: O=C(c1cc2c(cc1F)OC(c1ccc(F)cc1)(c1ccc(Cl)cc1Cl)O2)N1CCOCC1 (stereo not given) . Reported Population Membrane Permeable-Phenotype (%)?
Response: 9

Query: Entry under review: CCOC(=O)Nc1cc(-c2ccc(C)c(NS(C)(=O)=O)c2)nn2c(C)nnc12 . Reported Population Membrane Permeable-Phenotype (%)?
Response: 16

Query: Entry under review: COC(=O)C1=C(C)NC(C)=C(C(=O)OCCCN2CCC(c3ccccc3)(c3ccccc3)CC2)[C@H]1c1cccc([N+](=O)[O-])c1 [NIGULDIPINE] . Reported Population Membrane Permeable-Phenotype (%)?
Response: 66

Query: Entry under review: CCc1ccc(OCc2ccccc2C(=O)Nc2ccc3nc(C)cc(N)c3c2)cc1.Cl . Reported Population Membrane Permeable-Phenotype (%)?
Response: 28

Query: Entry under review: CNC(=O)Nc1ccc2c(c1)[C@@]1(CC2)OC(=O)N(CC(=O)N(Cc2ccc(F)cc2)[C@@H](C)C(F)(F)F)C1=O [A-486] . Reported Population Membrane Permeable-Phenotype (%)?
Response: 41

Query: Entry under review: C[C@]12CC[C@@H]3c4ccc(O)cc4CC[C@H]3[C@@H]1CC[C@@H]2O [ESTRADIOL] . Reported Population Membrane Permeable-Phenotype (%)?
Response: 4

Query: Entry under review: O=c1[nH]c2ccccc2n1C1CCN(Cc2ccc(-c3[nH]c4cc5ncnc5cc4nc3-c3ccccc3)cc2)CC1 . Reported Population Membrane Permeable-Phenotype (%)?
Response: 15

Query: Entry under review: CC(C)CC(=O)Nc1[nH]nc2c1CN(C(=O)C1CCN(C)CC1)C2(C)C [PHA-793887] . Reported Population Membrane Permeable-Phenotype (%)?
Response: 22

Query: Entry under review: C=CC(=O)Nc1cccc(Oc2nc(Nc3ccc(N4CCN(C)CC4)cc3OC)ncc2Cl)c1 . Reported Population Membrane Permeable-Phenotype (%)?
Response: 5

Query: Entry under review: CCCSc1nc(N[C@@H]2C[C@H]2c2ccc(F)c(F)c2)c2nnn([C@@H]3C[C@H](OCCO)[C@@H](O)[C@H]3O)c2n1 [TICAGRELOR] . Reported Population Membrane Permeable-Phenotype (%)?
Response: 5

Query: Entry under review: CCc1nn(CCCN2CCN(c3cccc(Cl)c3)CC2)c(=O)n1CCOc1ccccc1.Cl [NEFAZODONE HYDROCHLORIDE] . Reported Population Membrane Permeable-Phenotype (%)?
Response: 3

Query: Entry under review: Cc1nc(N2CC[C@H](O)C2)ncc1-c1cc(C(F)(F)F)cc2[nH]ncc12 . Reported Population Membrane Permeable-Phenotype (%)?
Response: 28

Query: Entry under review: COc1ccc(-c2ccc3ncc4c(c3c2)n(-c2ccc(N3CCNCC3)c(C(F)(F)F)c2)c(=O)n4C)cn1.O=C(O)/C=C\C(=O)O [BGT-226] . Reported Population Membrane Permeable-Phenotype (%)?
Response: 70

Query: Entry under review: CC(C)Oc1ccccc1C(=O)Nc1ccccc1C(=O)Nc1cccc(S(=O)(=O)C(F)(F)F)c1 . Reported Population Membrane Permeable-Phenotype (%)?
Response: 10

Query: Entry under review: CC1=C(C(=O)Nc2cc3cn[nH]c3cc2F)C(c2ccc(C(F)(F)F)cc2)CC(=O)N1 (stereo not given) . Reported Population Membrane Permeable-Phenotype (%)?
Response: 4

Query: Entry under review: CC(C)c1noc(N2CCC(COc3ccc(-c4ccc(S(C)(=O)=O)cc4)nc3)CC2)n1 [GSK-1292263] . Reported Population Membrane Permeable-Phenotype (%)?
Response: 3

Query: Entry under review: Cc1cccc(CN2CCN(C(c3ccccc3)c3ccc(Cl)cc3)CC2)c1.Cl.Cl (stereo not given) . Reported Population Membrane Permeable-Phenotype (%)?
Response: 4

Query: Entry under review: COc1cc2ncn(-c3cc(OCc4ccccc4C(F)(F)F)c(C(N)=O)s3)c2cc1OC [GW843682X] . Reported Population Membrane Permeable-Phenotype (%)?
Response: 12

Query: Entry under review: Cc1ccc2c(c1)c1c(n2CCc2ccc(C)nc2)CCN(C)C1 [LATREPIRDINE] . Reported Population Membrane Permeable-Phenotype (%)?
Response: 5

Query: Entry under review: Cc1c[nH]c2nccc(Oc3c(F)cc(Nc4cc(Cl)nc(N)n4)cc3F)c12 [BAY-549] . Reported Population Membrane Permeable-Phenotype (%)?
Response: 4

Query: Entry under review: O=c1cc(N2CCOCC2)oc2c(-c3cccc4c3sc3ccccc34)cccc12 . Reported Population Membrane Permeable-Phenotype (%)?
Response: 2

Query: Entry under review: COc1ccccc1CN[C@H]1C2CCN(CC2)[C@H]1C(c1ccccc1)c1ccccc1 [CP-96345] . Reported Population Membrane Permeable-Phenotype (%)?
Response: 4

Query: Entry under review: CC(C)OC(=O)N1CCC(Oc2ncnc3c2cnn3-c2ccc(S(C)(=O)=O)cc2F)CC1 . Reported Population Membrane Permeable-Phenotype (%)?
Response: 4

Query: Entry under review: Cl.O=C(O)c1cc(-c2ccc(C3CCNCC3)cc2)c2ccc(-c3ccc(C(F)(F)F)cc3)cc2c1 . Reported Population Membrane Permeable-Phenotype (%)?
Response: 3

Query: Entry under review: C=CC(=O)Nc1ccc2[nH]c(=O)n(C3CCN(Cc4ccc(-c5nc6cc[nH]c(=O)c6cc5-c5ccccc5)cc4)CC3)c2c1 [Borussertib] . Reported Population Membrane Permeable-Phenotype (%)?
Response: 11

Query: Entry under review: CNC(=O)Nc1ccc(-c2nc(N3CC4CCC(C3)O4)c3cnn(C4CCC5(CC4)OCCO5)c3n2)cc1 . Reported Population Membrane Permeable-Phenotype (%)?
Response: 5

Query: Entry under review: CC(C)(C)NC[C@H](O)COc1nsnc1N1CCOCC1 [TIMOLOL] . Reported Population Membrane Permeable-Phenotype (%)?
Response: 8

Query: Entry under review: C=CC(=O)Nc1cccc(Sc2nc(Nc3ccc(N4CCN(C)CC4)cc3)ncc2Cl)c1 . Reported Population Membrane Permeable-Phenotype (%)?
Response: 0

Query: Entry under review: CN1CCN(Cc2ccc(Nc3ncc(Cl)c(Nc4ccccc4S(=O)(=O)N(C)C)n3)cc2)CC1 [DUBERMATINIB] . Reported Population Membrane Permeable-Phenotype (%)?
Response: 4

Query: Entry under review: COc1cc(Nc2nccc(-c3cnn4nc(OC)ccc34)n2)cc(C(F)(F)F)c1 . Reported Population Membrane Permeable-Phenotype (%)?
Response: 2
